pIC50: −log10 of the molar value.
Dear all, this message contains pIC50 results, target or system NDM-1 (Klebsiella pneumoniae, UniProt C7C422).

// below: answered compounds
Query: Which measured pIC50 belongs to O=C(O)/C(CCc1ccccc1)=C(/CCc1ccccc1)C(=O)O [Example 8, Disodium 2,3-diphenethylmaleate] , tested on NDM-1 (Klebsiella pneumoniae, UniProt C7C422)?
Response: > 5.00

Query: Further, for COc1ccc(C/C(C(=O)O)=C(/C(=O)O)C(C)C)cc1 ?
Response: > 5.00

Query: Further, for CC(C)/C(C(=O)O)=C(\Cc1ccc(OCCN)cc1)C(=O)O ?
Response: > 5.00

Query: Further, for CC(C)/C(C(=O)O)=C(\Cc1ccccc1)C(=O)O [Example 12, Disodium 3-benzyl-2-isopropylmaleate] ?
Response: 4.52 to 5.00

New cases:
Query: Which measured pIC50 belongs to CC/C(C(=O)O)=C(/C(=O)O)C(C)C [Example 10, Disodium 3-ethyl-2-isopropylmaleate] , tested on NDM-1 (Klebsiella pneumoniae, UniProt C7C422)?
Response: 4.52 to 5.00

Query: Further, for CC(C)/C(C(=O)O)=C(\Cc1ccc(C(N)=O)cc1)C(=O)O ?
Response: 4.52 to 5.00

Query: Further, for CC/C(C(=O)O)=C(\SC(C)C)C(=O)O [Example 24, Disodium 3-ethyl-2-isopropylthiomaleate] ?
Response: 4.00 to 4.52

Query: Further, for O=C(O)/C(Cc1ccccc1)=C(\C(=O)O)C1CCCC1 [Example 16, Disodium 3-benzyl-2-cyclopentylmaleate] ?
Response: > 5.00

---

Dear all, this message contains IC50 results, target or system NDM-1 (Klebsiella pneumoniae).

// below: answered compounds
Query: Which measured IC50 belongs to O=C(O)/C(CCc1ccccc1)=C(/Cc1ccccc1)C(=O)O [Example 7, Disodium 2-benzyl-3-phenethylmaleate] , tested on NDM-1 (Klebsiella pneumoniae)?
Response: < 10 µM

Query: Further, for CC/C(C(=O)O)=C(\Cc1ccc(O)cc1)C(=O)O [Example 5] ?
Response: < 10 µM

Query: Further, for CC(C)/C(C(=O)O)=C(/C(=O)O)[C@H]1CC[C@@H](O)CC1 [Example 21] ?
Response: < 10 µM

Query: Further, for CC(C)/C(C(=O)O)=C(/C(=O)O)C1CCCCC1 [Example 19, Disodium 2-cyclohexyl-3-isopropylmaleate] ?
Response: < 10 µM

Query: Further, for CC(C)/C(C(=O)O)=C(\Cc1cccnc1)C(=O)O [Example 23] ?
Response: 30 to 100 µM

Query: Further, for CC(C)/C(C(=O)O)=C(/C(=O)O)C1CCOCC1 [Example 22] ?
Response: 10 to 30 µM

New cases:
Query: Which measured IC50 belongs to O=C(O)/C(=C(\C(=O)O)C1CCCC1)C1CCCC1 [Example 17, Disodium 2,3-dicyclopentylmaleate] , tested on NDM-1 (Klebsiella pneumoniae)?
Response: < 10 µM

Query: Further, for CC(C)/C(C(=O)O)=C(\Cc1ccc(OCCNC(=N)N)cc1)C(=O)O [Example 37] ?
Response: 30 to 100 µM

---

target: NDM-1 (Klebsiella pneumoniae, UniProt C7C422); assay: biochemical; conditions: NDM-1 2.5 nM, 100 μM imipenem as substrate, 100 μM ZnSO4, pH 7.5, 30° C.
Sequence (C7C422 29-270, looked up): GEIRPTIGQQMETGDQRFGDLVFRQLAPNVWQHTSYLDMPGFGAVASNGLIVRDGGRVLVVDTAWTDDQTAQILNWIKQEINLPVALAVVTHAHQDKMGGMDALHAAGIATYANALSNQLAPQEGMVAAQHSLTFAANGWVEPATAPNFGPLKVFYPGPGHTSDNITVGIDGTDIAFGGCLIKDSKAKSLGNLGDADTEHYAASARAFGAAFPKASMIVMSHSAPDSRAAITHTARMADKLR
readout: IC50

Query: // returns reported IC50 for input CC(C)/C(C(=O)O)=C(/C(=O)O)C1CCCC1
Response: < 10 µM

Query: Further, for CC(C)/C(C(=O)O)=C(\Cc1ccc(OC2CCNC2)cc1)C(=O)O (stereo not drawn) ?
Response: < 10 µM

Query: Further, for CC(C)/C(C(=O)O)=C(\Cc1ccc(C(=O)N2CCOCC2)cc1)C(=O)O ?
Response: 10 to 30 µM

Query: Further, for CC(C)/C(C(=O)O)=C(\Cc1ccc(OCC(=O)O)cc1)C(=O)O ?
Response: < 10 µM

Query: Further, for CC(C)/C(C(=O)O)=C(\Cc1ccc(OCC(N)=O)cc1)C(=O)O ?
Response: < 10 µM

Lab note: next compound to report on.
Query: // returns reported IC50 for input O=C(O)/C(Cc1ccccc1)=C(/Cc1ccccc1)C(=O)O [Example 6, Disodium 2,3-dibenzylmaleate]
Response: < 10 µM
